Parameter: pIC50. Scope: all listed entries.
Tested on: HT-29
protocol-description: In vitro cell viability assay (Cell Titer Glo), colorectal cancer HT-29
Assay type: cell-based
assay-setup: Homo sapiens; HT-29, CSC conditions, 72 h; read-out: Cell viability (IC50) HT-29 CSC
Bear in mind: pIC50 is minus log10 of a mol/L concentration; give just that figure.

Examples with their reported pIC50 follow.
chemical_smiles=Clc1cc2nc(-c3ccc(N4CCCCC4)cc3)[nH]c2cc1Cl readout_number=7.40
chemical_smiles=Clc1cc2nc(-c3ccc(N4CCCC4)cc3)[nH]c2cc1Cl readout_number=6.29

Attention now turns to another entry.
IN: Identify the reported pIC50 for the following entry. c1cc2[nH]c(-c3ccc(N4CCCC4)cc3)nc2cn1
OUT: 7.30

----------
Tested on: S2VP10
protocol-description: In vitro cell viability assay (Cell Titer Glo), pancreatic cancer S2VP10
Type: cell-based
assay-setup: S2VP10, adherent, complete medium 10% FBS, 72 h; read-out: Cell viability (IC50) S2VP10 Adherent
Description: Breast cancer SUM159 was obtained from Asterand and grown according to supplier's recommendation. All other cell lines were obtained from ATCC and cultured in standard cell culture conditions with complete cell culture medium containing 10% FBS. Cancer cells were seeded into optically clear tissue culture-treated black 96-well plates (for adherent cells) or low-attachment 96-well plates (for cancer stem cells) at 2,000-5000 cells/50 μL of media per well. […]
Assign labels as follows, please: class 1 for IC50 below 1000 nM; class 0 for IC50 equal to or exceeding 1000 nM.

Examples from the recorded data:
chemical_smiles=FC(F)(F)c1cc(Cl)c2[nH]c(-c3ccc(N4CCCC4)cc3)nc2c1 label_class="class 0"
chemical_smiles=FC(F)(F)Oc1ccc(-c2nc3cc(Cl)c(Cl)cc3[nH]2)cc1 label_class="class 0"
chemical_smiles=Oc1c(Cl)cccc1-c1nc2cc(C(F)(F)F)ccc2[nH]1 label_class="class 0"
chemical_smiles=FC(F)(F)Oc1ccc(-c2nc3c(Cl)cc(Cl)cc3[nH]2)cc1 label_class="class 0"

IN: Lab note: confirm whether the reported IC50 for this molecule is below 1000 nM, equality not counting. molecule: c1cc2nc(-c3ccc(N4CCCCC4)cc3)[nH]c2cn1
OUT: class 1

IN: Lab note: confirm whether the reported IC50 for this molecule is below 1000 nM, equality not counting. molecule: Clc1cc2nc(-c3ccc(-n4ccnc4)cc3)[nH]c2cc1Cl
OUT: class 0

----------
Test system: Suit-2
protocol-description: In vitro cell viability assay (Cell Titer Glo), pancreatic cancer Suit-2
Type: cell-based
assay-setup: Suit-2, CSC enriching serum free medium, non-adherent plates, 72 h; read-out: Cell viability (IC50) Suit-2 CSC
Parameter: IC50. Scope: all listed entries.
Record the value in nM, omitting the unit from your answer.

Examples with their reported IC50 follow.
chemical_smiles=CCN1CCN(c2ccc(-c3nc4cc(Cl)c(Cl)cc4[nH]3)cc2)CC1 readout_number=1230
chemical_smiles=FC(F)(F)Oc1ccc(-c2nc3cc(Cl)c(Cl)cc3[nH]2)cc1 readout_number=560
chemical_smiles=CN1CCN(c2ccc(-c3nc4ccc(C(F)(F)F)cc4[nH]3)cc2)CC1 readout_number=760
chemical_smiles=FC(F)(F)Oc1ccc(-c2nc3cc(C(F)(F)F)c(Cl)cc3[nH]2)cc1 readout_number=860

Attention now turns to another entry.
IN: Identify the reported IC50 for the following entry. FC(F)(F)c1cc2nc(-c3ccc(N4CCCCC4)cc3)[nH]c2cc1Cl
OUT: 550

----------
Test system: S2VP10
protocol-description: In vitro cell viability assay (Cell Titer Glo), pancreatic cancer S2VP10
Assay type: cell-based
assay-setup: S2VP10, adherent, complete medium 10% FBS, 72 h; read-out: Cell viability (IC50) S2VP10 Adherent
parameter: IC50 (nM)
Record the value in nM, omitting the unit from your answer.

molecule="Fc1cc2[nH]c(-c3ccc(N4CCCC4)cc3)nc2cc1Cl [Compound 31]" target_of_assay=S2VP10 parameter=IC50 readout_number=510
molecule="CN1CCN(c2ccc(-c3nc4ccc(C(F)(F)F)cc4[nH]3)cc2)CC1 [Compound 18]" target_of_assay=S2VP10 parameter=IC50 readout_number=7160

IN: Identify the reported IC50 for the following entry. CN1CCN(c2ccc(-c3nc4ccc(F)cc4[nH]3)cc2)CC1 [Compound 19]
OUT: 790

IN: Identify the reported IC50 for the following entry. Clc1cc2nc(-c3ccc(N4CCCC4)cc3)[nH]c2cc1Cl [Compound 12]
OUT: 2580

IN: Identify the reported IC50 for the following entry. CN1CCN(c2ccc(-c3nc4ccncc4[nH]3)cc2)CC1 [Compound 20]
OUT: 140

IN: Identify the reported IC50 for the following entry. FC(F)(F)c1ccc(-c2nc3c(Cl)cc(Cl)cc3[nH]2)cc1 [Compound 7]
OUT: 3880

----------
System: S2VP10
protocol-description: In vitro cell viability assay (Cell Titer Glo), pancreatic cancer S2VP10
Assay type: cell-based
assay-setup: S2VP10, adherent, complete medium 10% FBS, 72 h; read-out: Cell viability (IC50) S2VP10 Adherent
parameter: IC50

Examples with their reported IC50 follow.
compound="Fc1cc2[nH]c(-c3ccc(OC(F)(F)F)cc3)nc2cc1C(F)(F)F [Compound 25]" parameter=IC50 result="7.2 µM"
compound="CN1CCN(c2ccc(-c3nc4cc(Cl)c(Cl)cc4[nH]3)cc2F)CC1 [Compound 27]" parameter=IC50 result="8.31 µM"
compound="Cc1nccn1-c1ccc(-c2nc3cc(Cl)c(Cl)cc3[nH]2)cc1 [Compound 16]" parameter=IC50 result="> 10 µM"
compound="Clc1cc2nc(-c3ccc(N4CCNCC4)cc3)[nH]c2cc1Cl [Compound 13]" parameter=IC50 result="> 10 µM"
compound="CN1CCN(c2ccc(-c3nc4cc(Cl)c(Cl)cc4[nH]3)cc2)CC1 [Compound 10]" parameter=IC50 result="4.76 µM"

Attention now turns to another entry.
IN: Identify the reported IC50 for the following entry. Clc1cc2nc(-c3ccc(N4CCCCC4)cc3)[nH]c2cc1Cl [Compound 11]
OUT: 1.68 µM

----------
Test system: HT-29
protocol-description: In vitro cell viability assay (Cell Titer Glo), colorectal cancer HT-29
Format: cell-based
assay-setup: Homo sapiens; HT-29, CSC conditions, 72 h; read-out: Cell viability (IC50) HT-29 CSC
pIC50: −log10 of the molar value.
Assign labels as follows, please: True for pIC50 below 6; False for pIC50 equal to or exceeding 6.

Examples from the recorded data:
compound="CN1CCN(c2ccc(-c3nc4cc(Cl)c(Cl)cc4[nH]3)cc2)CC1 [Compound 10]" target_of_assay=HT-29 label_class=False
compound="Oc1ccc(Cl)cc1-c1nc2cc(Cl)c(Cl)nc2[nH]1 [Compound 9]" target_of_assay=HT-29 label_class=True

IN: Lab note: confirm whether the reported pIC50 for this compound is below 6, equality not counting. compound: Fc1cc2[nH]c(-c3ccc(N4CCCC4)cc3)nc2cc1Cl [Compound 31]
OUT: False

IN: Lab note: confirm whether the reported pIC50 for this compound is below 6, equality not counting. compound: Oc1ccc(F)cc1-c1nc2cc(Cl)c(F)cc2[nH]1 [Compound 3]
OUT: True

----------
Test system: S2VP10
protocol-description: In vitro cell viability assay (Cell Titer Glo), pancreatic cancer S2VP10
Assay type: cell-based
assay-setup: S2VP10, CSC enriching serum free medium, non-adherent plates, 72 h; read-out: Cell viability (IC50) S2VP10 CSC
Method: Breast cancer SUM159 was obtained from Asterand and grown according to supplier's recommendation. All other cell lines were obtained from ATCC and cultured in standard cell culture conditions with complete cell culture medium containing 10% FBS. Cancer cells were seeded into optically clear tissue culture-treated black 96-well plates (for adherent cells) or low-attachment 96-well plates (for cancer stem cells) at 2,000-5000 cells/50 μL of media per well. […]
pIC50: −log10 of the molar value.
Assign labels as follows, please: Y for pIC50 below 6; N for pIC50 equal to or exceeding 6.

Examples from the recorded data:
chemical_smiles=CN1CCN(c2ccc(-c3nc4ccc(F)cc4[nH]3)cc2)CC1 label_class=N
chemical_smiles=Clc1cc2nc(-c3ccc(N4CCCC4)cc3)[nH]c2cc1Cl label_class=Y
chemical_smiles=Cc1nccn1-c1ccc(-c2nc3cc(Cl)c(Cl)cc3[nH]2)cc1 label_class=Y
chemical_smiles=Clc1cc2nc(-c3ccc(N4CCNCC4)cc3)[nH]c2cc1Cl label_class=Y

IN: Lab note: confirm whether the reported pIC50 for this compound is below 6, equality not counting. compound: Oc1ccc(F)cc1-c1nc2cc(Cl)c(F)cc2[nH]1
OUT: N

IN: Lab note: confirm whether the reported pIC50 for this compound is below 6, equality not counting. compound: CN1CCN(c2ccc(-c3nc4cc(Cl)c(Cl)cc4[nH]3)cc2F)CC1
OUT: Y

IN: Lab note: confirm whether the reported pIC50 for this compound is below 6, equality not counting. compound: FC(F)(F)c1cc(Cl)c2[nH]c(-c3ccc(N4CCCC4)cc3)nc2c1
OUT: N

IN: Lab note: confirm whether the reported pIC50 for this compound is below 6, equality not counting. compound: c1cc2[nH]c(-c3ccc(N4CCCC4)cc3)nc2cn1
OUT: N
